System: Staphylococcus aureus
ENDPOINT: MIC (µM)
I only need the number, in µM, no unit after it.

Solved entries (count: 4):
CC[C@H](C)[C@H](N)C(=O)N[C@@H](CC(C)C)C(=O)N1CCC[C@H]1C(=O)N[C@@H](Cc1c[nH]c2ccccc12)C(=O)N[C@@H](CCCCN)C(=O)N[C@@H](Cc1c[nH]c2ccccc12)C(=O)N1CCC[C@H]1C(=O)N[C@@H](Cc1c[nH]c2ccccc12)C(=O)N[C@@H](Cc1c[nH]c2ccccc12)C(=O)N1CCC[C@H]1C(=O)N[C@@H](C)C(=O)N[C@@H](CCCN=C(N)N)C(=O)N[C@@H](CCCN=C(N)N)C(N)=O [ILPWKWPWWPARR]
44.6
CC[C@H](C)[C@H](NC(=O)[C@@H](NC(=O)CN)C(C)C)C(=O)N[C@@H](CC(=O)O)C(=O)N[C@@H](C)C(=O)N[C@@H](C)C(=O)N[C@@H](CCCCN)C(=O)N[C@@H](CCCCN)C(=O)N[C@H](C(=O)N[C@H](C(=O)N[C@@H](CC(N)=O)C(=O)N[C@H](C(=O)N[C@@H](CC(C)C)C(=O)N[C@@H](CCCCN)C(=O)N[C@@H](CC(N)=O)C(=O)N[C@@H](CC(C)C)C(=O)N1CCC[C@H]1C(N)=O)C(C)C)C(C)C)C(C)C [GVIDAAKKVVNVLKNLP]
14.1
CC[C@H](C)[C@H](NC(=O)[C@H](CC(C)C)NC(=O)[C@H](C)NC(=O)[C@@H]1CCCN1C(=O)[C@H](CO)NC(=O)CN)C(=O)N[C@@H](CO)C(=O)N[C@@H](Cc1c[nH]c2ccccc12)C(=O)N[C@H](C(=O)N[C@@H](CCCCN)C(=O)N[C@@H](CCCN=C(N)N)C(=O)N[C@@H](CCCCN)C(=O)N[C@@H](CCCN=C(N)N)C(=O)N[C@@H](CCC(N)=O)C(=O)N[C@@H](CCC(N)=O)C(N)=O)[C@@H](C)CC [GSPALISWIKRKRQQ]
50.9
CC(C)C[C@H](NC(=O)[C@H](C)NC(=O)[C@H](CO)NC(=O)[C@H](Cc1ccccc1)NC(=O)[C@@H](NC(=O)[C@H](CO)NC(=O)[C@@H]1CCCN1C(=O)[C@@H](NC(=O)[C@@H](NC(=O)[C@H](CCCCN)NC(=O)[C@H](CO)NC(=O)[C@H](C)NC(=O)[C@H](CC(C)C)NC(=O)[C@H](CCCCN)NC(=O)[C@H](Cc1ccccc1)NC(=O)[C@@H](NC(=O)[C@H](Cc1ccccc1)NC(=O)[C@@H](N)CO)C(C)C)C(C)C)C(C)C)C(C)C)C(=O)N[C@H](C(=O)N[C@@H](CCCN=C(N)N)C(=O)O)[C@@H](C)O [SFVFKLASKVVPSVFSALTR]
117

The record that follows has no MIC shown yet.
Prompt: State the recorded MIC for this entry: CC(C)C[C@H](NC(=O)[C@H](Cc1ccccc1)NC(=O)[C@@H]1CCCN1C(=O)[C@H](Cc1c[nH]c2ccccc12)NC(=O)[C@H](Cc1c[nH]c2ccccc12)NC(=O)[C@H](Cc1c[nH]c2ccccc12)NC(=O)[C@@H]1CCCN1C(=O)[C@H](Cc1ccccc1)NC(=O)[C@H](CCCCN)NC(=O)[C@H](CCCCN)NC(=O)[C@@H](N)C(C)C)C(=O)N[C@@H](CCCCN)C(=O)N[C@@H](CCCCN)C(N)=O [VKKFPWWWPFLKK]
Response: 5.59

----------
System: Staphylococcus aureus ATCC 6538
Listing: MIC of selected molecules
I only need the number, in µM, no unit after it.

CC(C)[C@H](NC(=O)[C@H](CS)NC(=O)[C@@H](NC(=O)[C@H](CCCN=C(N)N)NC(=O)[C@H](CCCCN)NC(=O)CNC(=O)[C@H](CC(N)=O)NC(=O)[C@H](CS)NC(=O)[C@H](Cc1ccc(O)cc1)NC(=O)CNC(=O)CNC(=O)[C@H](CO)NC(=O)[C@@H](N)CCCN=C(N)N)C(C)C)C(=O)N[C@@H](CS)C(=O)N[C@@H](CCCN=C(N)N)C(=O)O [RSGGYCNGKRVCVCR]
15.1

Prompt: State the recorded MIC for this entry: CC(C)C[C@H](NC(=O)[C@H](CCCCN)NC(=O)[C@H](Cc1ccccc1)NC(=O)[C@H](CC(C)C)NC(=O)[C@@H](NC(=O)[C@H](CCCCN)NC(=O)[C@@H](N)CCCCN)C(C)C)C(=O)N[C@@H](CCCCN)C(=O)N[C@@H](Cc1ccccc1)C(=O)N[C@@H](CCCCN)C(N)=O [KKVLFKLKFK]
Response: 9.78

----------
Tested on: Pseudomonas aeruginosa ATCC 27853
Assay: ≥ marks a high value that may be exact or a test limit, other limits are often not marked, values filed in µg/mL are converted to µM
Listing: MIC of selected compounds
I only need the number, in µM, no unit after it.

CC[C@H](C)[C@H](NC(=O)CN)C(=O)NCC(=O)N[C@@H](C)C(=O)N[C@H](C(=O)N[C@@H](CC(C)C)C(=O)N[C@@H](CCCCN)C(=O)N[C@H](C(=O)N[C@@H](CC(C)C)C(=O)N[C@@H](C)C(=O)N[C@@H](CC(C)C)C(=O)N[C@H](C(=O)N[C@@H](CO)C(=O)N[C@@H](Cc1c[nH]c2ccccc12)C(=O)N[C@H](C(=O)N[C@@H](CCCCN)C(=O)N[C@@H](CCCN=C(N)N)C(=O)N[C@@H](CCCCN)C(=O)N[C@@H](CCCN=C(N)N)C(N)=O)[C@@H](C)CC)[C@@H](C)CC)C(C)C)C(C)C [GIGAVLKVLALISWIKRKR]
11.2
CC(C)C[C@H](NC(=O)[C@H](Cc1c[nH]c2ccccc12)NC(=O)[C@H](CC(C)C)NC(=O)[C@@H](NC(=O)[C@H](CC(C)C)NC(=O)[C@H](CCCCN)NC(=O)[C@@H](N)CCCCN)[C@@H](C)O)C(=O)N[C@H](C(=O)N[C@@H](CC(C)C)C(=O)N[C@@H](CCCCN)C(=O)N[C@@H](CCCCN)C(N)=O)[C@@H](C)O [KKLTLWLTLKK]
8
CC[C@H](C)[C@@H]1NC(=O)[C@H](C)NC(=O)[C@@H](NC(=O)[C@H](Cc2ccccc2)NC(=O)[C@@H](NC(=O)[C@H](CCCCN)NC(=O)[C@@H]2CCCN2C(=O)[C@H](CC(C)C)NC(=O)[C@H](Cc2ccccc2)NC(=O)[C@@H](N)CCCCN)[C@@H](C)CC)CSSC[C@@H](C(=O)O)NC(=O)[C@H](CCCCN)NC(=O)[C@H](CCCCN)NC(=O)[C@H]([C@@H](C)O)NC1=O [KFLPKIFCAITKKC]
512

The record that follows has no MIC shown yet.
Prompt: State the recorded MIC for this entry: CC[C@H](C)[C@H](NC(=O)[C@H](CCCCN)NC(=O)[C@H](C)NC(=O)[C@H](C)NC(=O)[C@H](C)NC(=O)[C@H](CCCCN)NC(=O)[C@H](C)NC(=O)[C@H](C)NC(=O)[C@H](C)NC(=O)[C@H](CCCCN)NC(=O)[C@@H](NC(=O)[C@@H](N)Cc1c[nH]c2ccccc12)[C@@H](C)CC)C(=O)N[C@@H](Cc1c[nH]c2ccccc12)C(N)=O [WIKAAAKAAAKIW]
Response: 32

----------
Below are MIC values measured for Candida parapsilosis ATCC 22019.
I only need the number, in µM, no unit after it.

CC[C@H](C)[C@H](NC(=O)[C@H](CCCN=C(N)N)NC(=O)CNC(=O)[C@H](CC(C)C)NC(=O)[C@H](Cc1ccccc1)NC(=O)[C@H](CCCCN)NC(=O)[C@H](CO)NC(=O)[C@H](Cc1ccccc1)NC(=O)[C@H](Cc1c[nH]c2ccccc12)NC(=O)[C@H](CCCCN)NC(=O)[C@@H](NC(=O)[C@@H](N)Cc1ccccc1)C(C)C)C(=O)N[C@@H](CC(C)C)C(N)=O
6

The record that follows has no MIC shown yet.
Prompt: State the recorded MIC for this entry: `CC[C@H](C)[C@H](N)C(=O)N[C@@H](CC(N)=O)C(=O)N[C@@H](Cc1c[nH]c2ccccc12)C(=O)N[C@@H](CC(C)C)C(=O)N[C@@H](CCCCN)C(=O)N[C@@H](CC(C)C)C(=O)NCC(=O)N[C@@H](CCCCN)C(=O)N[C@@H](CCSC)C(=O)N[C@H](C(=O)N[C@H](C(=O)N[C@@H](CC(=O)O)C(=O)N[C@@H](C)C(=O)N[C@@H](CC(C)C)C(N)=O)[C@@H](C)CC)C(C)C`
Response: 16

----------
Test system: Klebsiella pneumoniae ATCC 700603
ENDPOINT: MIC (µM)
I only need the number, in µM, no unit after it.

Solved entries (count: 3):
CC[C@H](C)[C@H](NC(=O)[C@H](CCCCN)NC(=O)[C@H](CCCCN)NC(=O)[C@H](C)NC(=O)[C@H](CC(C)C)NC(=O)[C@H](C)NC(=O)[C@H](C)NC(=O)[C@H](CC(C)C)NC(=O)[C@@H]1CCCN1C(=O)[C@H](CCCCN)NC(=O)[C@H](CC(C)C)NC(=O)[C@H](CC(N)=O)NC(=O)[C@@H](NC(=O)[C@H](CCCCN)NC(=O)CNC(=O)[C@H](CC(C)C)NC(=O)[C@H](CC(C)C)NC(=O)[C@H](Cc1ccc(O)cc1)NC(=O)CNC(=O)[C@H](C)N)[C@@H](C)CC)C(=O)N[C@@H](CC(C)C)C(N)=O
29
CC[C@H](C)[C@H](NC(=O)[C@H](CCCN=C(N)N)NC(=O)[C@H](CCCN=C(N)N)NC(=O)[C@H](Cc1ccccc1)NC(=O)[C@H](CC(C)C)NC(=O)[C@H](CCCN=C(N)N)NC(=O)[C@@H](N)CCCN=C(N)N)C(=O)N[C@@H](CC(C)C)C(=O)N[C@@H](CCCN=C(N)N)C(=O)N[C@@H](Cc1c[nH]c2ccccc12)C(=O)N[C@@H](CC(C)C)C(N)=O
0.3
CC[C@H](C)[C@@H]1NC(=O)CNC(=O)[C@H](CCCN=C(N)N)NC(=O)[C@H](Cc2ccc(O)cc2)NC(=O)[C@@H]2CSSC[C@H](NC1=O)C(=O)N[C@@H](Cc1ccc(O)cc1)C(=O)N[C@@H](CCCN=C(N)N)C(=O)N[C@@H](CCCN=C(N)N)C(=O)N[C@H](C(=O)N[C@@H](CCCN=C(N)N)C(=O)O)CSSC[C@H](NC(=O)[C@H](C)NC(=O)[C@@H](N)CCCCN)C(=O)N[C@@H](Cc1ccccc1)C(=O)N[C@@H](CCCN=C(N)N)C(=O)N[C@@H](C(C)C)C(=O)N2
0.464

The record that follows has no MIC shown yet.
Prompt: State the recorded MIC for this entry: `CC[C@H](C)[C@@H]1NC(=O)CNC(=O)[C@H](CCCN=C(N)N)NC(=O)[C@H](Cc2ccc(O)cc2)NC(=O)[C@@H]2CSSC[C@H](NC1=O)C(=O)N[C@@H](Cc1ccc(O)cc1)C(=O)N[C@@H](CCCN=C(N)N)C(=O)N[C@@H](CCCN=C(N)N)C(=O)N[C@H](C(=O)N[C@@H](CCCN=C(N)N)C(=O)O)CSSC[C@H](NC(=O)[C@H](Cc1c[nH]c3ccccc13)NC(=O)[C@@H](N)CCCCN)C(=O)NCC(=O)N[C@@H](CCCN=C(N)N)C(=O)N[C@@H](C(C)C)C(=O)N2`
Response: 0.459
